Data origin, for the record: patent US12673946B2

target: human TRPV4 (Homo sapiens); construct: host or cells: tetracycline-inducible Flp-In T-REx 293 cells; assay: Hypotonicity-induced Ca2+ influx (Fluo-4, FDSS); format: cell-based; conditions: Flp-In T-REx 293 cells expressing human TRPV4, examples listed under heading 'Human IC50<50 nM'
Sequence (Q9HBA0 whole entry): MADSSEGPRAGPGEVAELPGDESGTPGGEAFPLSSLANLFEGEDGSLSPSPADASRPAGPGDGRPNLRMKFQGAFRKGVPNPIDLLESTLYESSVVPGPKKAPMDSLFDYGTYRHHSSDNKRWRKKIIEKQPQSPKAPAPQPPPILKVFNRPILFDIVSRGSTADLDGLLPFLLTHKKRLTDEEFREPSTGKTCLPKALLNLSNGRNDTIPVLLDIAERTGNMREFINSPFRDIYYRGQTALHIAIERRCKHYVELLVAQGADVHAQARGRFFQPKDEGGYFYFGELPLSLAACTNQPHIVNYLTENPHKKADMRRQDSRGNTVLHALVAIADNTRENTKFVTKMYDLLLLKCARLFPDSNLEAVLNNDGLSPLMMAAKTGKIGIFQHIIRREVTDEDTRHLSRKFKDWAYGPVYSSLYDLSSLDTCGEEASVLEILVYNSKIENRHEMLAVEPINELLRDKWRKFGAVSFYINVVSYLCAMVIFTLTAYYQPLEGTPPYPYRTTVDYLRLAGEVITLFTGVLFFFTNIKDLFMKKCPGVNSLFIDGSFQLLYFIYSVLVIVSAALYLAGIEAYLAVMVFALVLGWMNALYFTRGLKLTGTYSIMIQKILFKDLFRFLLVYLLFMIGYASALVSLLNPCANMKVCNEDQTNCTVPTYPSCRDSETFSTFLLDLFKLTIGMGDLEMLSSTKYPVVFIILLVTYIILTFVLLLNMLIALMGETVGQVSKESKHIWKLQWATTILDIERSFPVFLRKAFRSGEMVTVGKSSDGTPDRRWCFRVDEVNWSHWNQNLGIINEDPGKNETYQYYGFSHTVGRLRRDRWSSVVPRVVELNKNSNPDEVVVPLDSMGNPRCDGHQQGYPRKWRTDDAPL
Reported IC50 by item:

// solved cases for IC50 follow
CC(C)c1cccc(C2(c3nc4c(c(=O)[nH]3)CN(C(=O)C(O)c3cccc(-c5cccc(OC(F)(F)F)c5)c3)CCC4)CC2)c1 (stereo not drawn) :: < 50 nM
O=C([C@H](O)c1cccc(-c2cccc(OC(F)(F)F)c2)c1)N1CCCc2nc(C3(c4cccc(-c5csc6ccccc56)c4)CC3)[nH]c(=O)c2C1 :: < 50 nM
O=C([C@H](O)c1cccc(Cl)c1)N1CCCc2nc(C3(c4ccccc4)CC3)[nH]c(=O)c2C1 :: < 50 nM

response.value for CC(C)c1cncc(C2(c3nc4c(c(=O)[nH]3)CN(C(=O)[C@H](O)c3cccc(-c5ccc(OC(F)(F)F)cc5)c3)CC4)CC2)c1 (field: IC50) = < 50 nM

IC50 for O=C(c1csc(C2(c3nc4c(c(=O)[nH]3)CN(C(=O)[C@H](O)c3cccc(C(F)(F)F)c3)CCC4)CC2)c1)N(Cc1ccccc1)Cc1ccccc1 is < 50 nM

Recorded IC50 (compound N#Cc1cc(F)cc(-c2cccc(C3(c4nc5c(c(=O)[nH]4)CN(C(=O)[C@H](O)c4cccc(C(F)(F)F)c4)CCC5)CC3)c2)c1 ): < 50 nM

====

biological target: human TRPV4 (Homo sapiens); construct: host or cells: tetracycline-inducible Flp-In T-REx 293 cells; test: Hypotonicity-induced Ca2+ influx (Fluo-4, FDSS); type: cell-based; settings: Flp-In T-REx 293 cells stably expressing human TRPV4, compounds listed by potency bin (<10 nM Tables 96-1/96-2, <3 nM Table 97)
pIC50: −log10 of the molar value.
MEASURE: pIC50

# annotated cases, reported pIC50 shown
O=C(C(O)c1cccc(SC(F)(F)F)c1)N1CCCc2nc(C3(c4cccc(Cl)c4)CC3)[nH]c(=O)c2C1 (centres unmarked) :: > 8.00
N#Cc1cc(Cl)cc(-c2cccc([C@@H](O)C(=O)N3CCc4nc(C5(c6ccccc6)CC5)[nH]c(=O)c4C3)c2)c1 :: > 8.52
CC(C)c1csc(C2(c3nc4c(c(=O)[nH]3)CN(C(=O)C(O)c3cccc(C(F)(F)F)c3F)CC4)CC2)c1 (centres unmarked) :: > 8.00
O=C(C(O)c1cccc(Cl)c1F)N1CCCc2nc(C3(c4cccc(Oc5ccccc5)c4)CC3)[nH]c(=O)c2C1 (centres unmarked) :: > 8.00
O=C(Cc1cccc(C(F)(F)F)c1F)N1CCCc2nc(C3(c4cccc(Cl)c4)CC3)[nH]c(=O)c2C1 :: > 8.00

The value of pIC50 recorded for CC(C)c1cccc(C2(c3nc4c(c(=O)[nH]3)CN(C(=O)[C@H](O)c3cccc(-c5cccc(Cl)c5)c3)CCC4)CC2)c1 when tested on human TRPV4 (Homo sapiens) reads > 8.00

Recorded pIC50 for O=C(Cc1cccc(-c2cccc(Cl)c2)c1)N1CCCc2nc(C3(c4cncc(-c5ccccc5)c4)CC3)[nH]c(=O)c2C1 on human TRPV4 (Homo sapiens) was > 8.00

Record O=C(N1CCCc2nc(C3(c4cccc(-c5csc6ccccc56)c4)CC3)[nH]c(=O)c2C1)C(F)(F)c1cccc(C(F)(F)F)c1 ; system human TRPV4 (Homo sapiens); pIC50 = > 8.00

The measured pIC50 that O=C([C@H](O)c1cccc(Cl)c1)N1CCCc2nc(C3(c4cccc(OCc5ccccc5)c4)CC3)[nH]c(=O)c2C1 showed for human TRPV4 (Homo sapiens) is > 8.52

Entry O=C([C@H](O)c1cccc(C(F)(F)F)c1)N1CCCc2nc(C3(c4cc(C(=O)N(C5CCCCC5)C5CCCCC5)cs4)CC3)[nH]c(=O)c2C1 under human TRPV4 (Homo sapiens) had pIC50 of > 8.00

Item CC(C)c1cccc(C2(c3nc4c(c(=O)[nH]3)CN(C(=O)Cc3cccc(-c5cccc(Cl)c5)c3)CCC4)CC2)c1 was tested on human TRPV4 (Homo sapiens); the reported pIC50 is > 8.00

Observed pIC50 on human TRPV4 (Homo sapiens), entry CC(c1cccc(C2(c3nc4c(c(=O)[nH]3)CN(C(=O)[C@H](O)c3cccc(C(F)(F)F)c3)CCC4)CC2)c1)C(F)(F)F (some centres unmarked) , equals > 8.52
